# ASSAYED TARGET: recombinant purified human IL-12 p70 (human) (UniProt P29459)
# Sequence (chain, as listed by the source, form in doubt, chain 1 of 2): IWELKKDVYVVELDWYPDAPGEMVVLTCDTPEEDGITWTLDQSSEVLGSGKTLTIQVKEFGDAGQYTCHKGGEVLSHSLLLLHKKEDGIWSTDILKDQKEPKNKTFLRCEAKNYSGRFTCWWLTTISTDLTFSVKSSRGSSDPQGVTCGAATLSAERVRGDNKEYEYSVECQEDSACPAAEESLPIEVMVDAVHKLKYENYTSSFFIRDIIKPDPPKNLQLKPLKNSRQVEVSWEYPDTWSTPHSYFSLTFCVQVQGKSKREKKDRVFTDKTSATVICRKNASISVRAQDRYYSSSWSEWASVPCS
# Sequence (P29459 23-219, form in doubt, chain 2 of 2): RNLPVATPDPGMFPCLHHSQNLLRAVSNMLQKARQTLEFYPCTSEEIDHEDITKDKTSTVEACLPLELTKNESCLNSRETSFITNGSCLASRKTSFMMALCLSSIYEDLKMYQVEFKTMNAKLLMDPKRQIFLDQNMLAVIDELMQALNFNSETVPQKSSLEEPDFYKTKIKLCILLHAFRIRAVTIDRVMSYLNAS
# PROTOCOL DESCRIPTION: cell-based or functional assay
METRIC: Av. IC50(nM) huIL-12; PHA blast IFN-gamma induction assay
Expressed in nM, but write only the number.

[
  {
    "BINDER": "1D4.4 (antibody, human IgG1, V domains shown) VH: EVTLRESGPALVKPTQTLTLTCTFSGFSLSKSVMGVSWIRQPPGKALEWLAHIYWDDDKYYNPSLKSRLTISKDTSKNQVVLTMTNMDPVDTATYYCARRGIRSAMDYWGQGTTVTVSS VL: SVVMTQTPKFLLVSAGDRVTITCKASQSVSNDVAWYQQKPGQSPKLLIYYASNRYTGVPDRFTGSGYGTDFTFIISTVRAEDLAVYFCQQDYNSPWTFGGGTKLEIKR",
    "MEAS VALUE": 0.64
  }
]

Which Av. IC50(nM) huIL-12; PHA blast IFN-gamma induction assay is reported for this binder? 1A6.4 (antibody, human IgG1, V domains shown) VH: QVTLKESGPGILKPSQTLSLTCSFSGFSLSTSGMGVSWIRQPSGKGLEWLAHIWWDGDNYYNPSLKSQLTISKDTSRNQVFLRIATVDTADTATYYCARRTRVNYAMDYWGQGTSVTVSS VL: EIVMTQSPATLSVSPGERATLSCKASQSVSNDVAWYQQKPGQAPRLLIYYASNRYTGIPARFSGSGSGTEFTLTISSLQSEDFAVYYCQQDYNSPWTFGGGTKVEIKR 2.1

Which Av. IC50(nM) huIL-12; PHA blast IFN-gamma induction assay is reported for this binder? 8E1.5 (antibody, IgG1, V domains shown) VH: EVQLVESGGGLVQPGGSLRLSCAASGFTFSDYGMVWVRQAPGKGLEWVASISSGSSNIYYADTVKGRFTISRDNAKNTLYLQMNSLRAEDTAVYYCARNPYWGQGTLVTVSS VL: DIQMTQSPSSLSASVGDRVTITCKASQNVGTNVAWYQQKPGKAPKGLIYSASHRYSGVPDRFSGSGSGTDFTLTISSLQPEDFATYYCQQYNSYPLTFGGGTKVEIKR 8
